testSystem: KRAS G12V-cRAF (Homo sapiens, UniProt P01116, G12V)
Construct: expressed in transfected cells
Sequence (P01116 1-188 isoform P01116-2 G12V): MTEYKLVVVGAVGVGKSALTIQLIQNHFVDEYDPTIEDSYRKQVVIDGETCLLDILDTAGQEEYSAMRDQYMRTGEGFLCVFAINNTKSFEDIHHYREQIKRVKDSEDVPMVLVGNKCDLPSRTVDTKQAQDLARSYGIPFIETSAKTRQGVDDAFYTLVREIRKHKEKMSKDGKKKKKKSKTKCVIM
protocolDetails: Cellular KRAS G12V-cRAF Binding Inhibition Assay (NanoBRET, AD293 stable cells)
Type: cell-based
conditionInfo: 3 h incubation, read-out: NanoBRET KRAS G12V
Listed below: IC50 values for each entry.
Report the figure in nM without appending any unit label.

{"compound": "CC1OCCCn2c(c3c4cc(ccc42)-c2csc(n2)CC(NC(=O)C2CC2C(F)F)C(=O)N2CCCC(N2)C(=O)OCC(C)(C)C3)-c2cc(N3CCS(=O)(=O)CC3)cnc21 (centres unmarked)", "IC50 (nM)": 40.9}

Query block: Recall the reported IC50 of CC1OCCCn2c(c3c4cc(ccc42)-c2csc(n2)CC(NC(=O)C2CC2C(F)F)C(=O)N2CCCC(N2)C(=O)OCC(C)(C)C3)-c2cc(N3CCN(C(C)C)CC3)cnc21 (centres unmarked) on KRAS G12V-cRAF (Homo sapiens, UniProt P01116, G12V) and write it down.
Result block: 11

Query block: Output reported IC50 of the compound CC1OCCCn2c(c3c4cc(ccc42)-c2csc(n2)CC(NC(=O)C24CC(C)(C2)C4)C(=O)N2CCCC(N2)C(=O)OCC(C)(C)C3)-c2cc(N3CC(C)N(C)C(C)C3)cnc21 (centres unmarked) on KRAS G12V-cRAF (Homo sapiens, UniProt P01116, G12V).
Result block: 6.7

Query block: Quote IC50 with test system KRAS G12V-cRAF (Homo sapiens, UniProt P01116, G12V) for CC1OCCCn2c(c3c4cc(ccc42)-c2csc(n2)CC(NC(=O)C2CC2C(F)F)C(=O)N2CCCC(N2)C(=O)OCC(C)(C)C3)-c2cc(-c3ccc(N4CCN(C)CC4)cc3)cnc21 (centres unmarked)
Result block: 19.8

Query block: Check KRAS G12V-cRAF (Homo sapiens, UniProt P01116, G12V) data and give IC50 for COCCN1CCN(c2cnc3c(c2)-c2c4c5cc(ccc5n2CCCOC3C)-c2csc(n2)CC(NC(=O)C2CC2C)C(=O)N2CCCC(N2)C(=O)OCC(C)(C)C4)CC1 (centres unmarked) .
Result block: 22.9

---

protocolDetails: PK Study of Compounds in Rats
Type: in vivo, Male SD rats
conditionInfo: male, SD, rat, whole blood, IV 1 mg/kg (n=3), mean
measuredParameter: half-life

{"compound": "CC1OCCCn2c(c3c4cc(ccc42)-c2csc(n2)CC(NC(=O)C2C4COCC42)C(=O)N2NC(C(=O)OCC(C)(C)C3)C3CC2C3)-c2cc(N3CCN(C)CC3)cnc21 (stereo not drawn)", "half-life": "4.93 h"}
{"compound": "CC1OCCCn2c(c3c4cc(ccc42)-c2csc(n2)CC(NC(=O)C2C(C)C2C)C(=O)N2NC(C(=O)OCC(C)(C)C3)C3CC2C3)-c2cc(N3CCN(C4COC4)CC3)cnc21 (stereo not drawn)", "half-life": "7.22 h"}

Now for the compound whose half-life we want.
Query block: Entry CC1OCCCn2c(c3c4cc(ccc42)-c2csc(n2)CC(NC(=O)C2C(C)C2C)C(=O)N2NC(C(=O)OCC(C)(C)C3)C3CC2C3)-c2cc(N3CCN(C)CC3)cnc21 (stereo not drawn) needs its half-life filled in; supply it.
Result block: 8.4 h

Data provenance is patent EP4800018A1.
